target: pseudo-kinase domain (JH2, amino-acids 536-812) of human V617F mutant JAK2 (Homo sapiens, UniProt O60674, F794H/V617F/W659A/W777A); construct: pseudo-kinase domain (JH2, amino-acids 536-812 with 3 surface mutations W659A, W777A, F794H); His (C); assay: JAK2 LanthaScreen JH2-V617F Binding Assay; conditions: JAK2 JH2-V617F 0.26 nM, 50 nM tracer, 1 hour at 25° C.; read-out: JH2 BIND V617F
Sequence (O60674 536-812 V617F/W659A/W777A/F794H): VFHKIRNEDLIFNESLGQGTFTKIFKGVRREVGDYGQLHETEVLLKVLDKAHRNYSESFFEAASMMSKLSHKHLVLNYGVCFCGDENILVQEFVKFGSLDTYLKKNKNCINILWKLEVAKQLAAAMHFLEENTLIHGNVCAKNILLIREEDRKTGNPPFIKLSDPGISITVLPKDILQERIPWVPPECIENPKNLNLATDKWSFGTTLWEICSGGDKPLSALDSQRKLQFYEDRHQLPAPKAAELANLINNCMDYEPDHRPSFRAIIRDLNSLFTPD

>  <molecule>
[2H]C([2H])([2H])n1c(=O)n([C@@H]2CC[C@@H](NC(=O)OC)C2)c2cc(Nc3cc(C(C)(C)O)cc(-c4ncc(C(O)(C(F)(F)F)C(F)(F)F)s4)n3)ncc21

>  <IC50>
≤ 10 nM

$$$$
>  <molecule>
[2H]C([2H])([2H])n1c(=O)n([C@@H]2CC[C@@H](NC(=O)OC)C2)c2cc(Nc3cc(C(=O)N4CCOC5CC54)c4cccc(C(F)(F)F)c4n3)ncc21 (stereo partly shown)

>  <IC50>
≤ 10 nM

$$$$
>  <molecule>
Cn1cc(-c2cc(NC(=O)OC3CCC3)cc(Nc3cc4c(cn3)n(C)c(=O)n4[C@@H]3CC[C@@H](NC(=O)OC4CCOCC4)C3)c2)cn1

>  <IC50>
10 to 100 nM

$$$$
>  <molecule>
COC(=O)N[C@@H]1CC[C@@H](n2c(=O)n(C)c3cnc(Nc4cc(NC(=O)C5(F)CCOCC5)cc(-c5cccc(C#N)c5)c4)cc32)C1

>  <IC50>
≤ 10 nM

$$$$
>  <molecule>
[2H]C1(NC(=O)OC)CC[C@@H](n2c(=O)n(C([2H])([2H])[2H])c3cnc(Nc4cc(C(C)(C)O)c5ccn(-c6cnn(C(F)(F)F)c6)c5n4)cc32)C1 (stereo partly shown)

>  <IC50>
≤ 10 nM

$$$$
>  <molecule>
COC(=O)N[C@@H]1CC[C@@H](n2c(=O)n(C)c3cnc(Nc4cccc(-c5ccc6[nH]nc(C)c6c5)n4)cc32)C1

>  <IC50>
10 to 100 nM

$$$$
>  <molecule>
COC(=O)N[C@@H]1CC[C@@H](n2c(=O)n(C)c3cnc(Nc4ccn5nc(-c6cnn(C)c6)cc5n4)cc32)C1

>  <IC50>
10 to 100 nM

$$$$
>  <molecule>
COC(=O)Nc1cc(Nc2cc3c(cn2)n(C)c(=O)n3[C@@H]2CC[C@@H](NC(=O)OC)C2)cc(C2CCN(C)CC2)c1

>  <IC50>
10 to 100 nM

$$$$
>  <molecule>
[2H]C([2H])([2H])n1c(=O)n([C@@H]2CC[C@@H](NC(=O)OC)C2)c2cc(Nc3cc(-c4cnccc4C(F)(F)F)cc(-c4ccc(C(F)F)s4)n3)ncc21

>  <IC50>
≤ 10 nM

$$$$
>  <molecule>
[2H]C([2H])([2H])n1c(=O)n([C@]2([2H])CC[C@@H](NC(=O)OC)C2)c2cc(Nc3cc(-c4cnccc4C(F)(F)F)c4nc(C)c(-c5cnn(C(F)F)c5)n4n3)ncc21 (single isomer, unassigned)

>  <IC50>
≤ 10 nM

$$$$
>  <molecule>
COC(=O)N[C@@H]1CC[C@@H](n2c(=O)n(C)c3cnc(Nc4cc(NC(=O)OC5CCC5)cc(C5CCOCC5)c4)cc32)C1

>  <IC50>
> 1000 nM

$$$$
>  <molecule>
[2H]C([2H])([2H])n1c(=O)n([C@@H]2CC[C@@H](NC(=O)OC)C2)c2cc(Nc3cc(C(=O)N4CCC(C#N)CC4)c4cccc(C(F)(F)F)c4n3)ncc21

>  <IC50>
≤ 10 nM

$$$$
>  <molecule>
[2H]C([2H])([2H])n1c(=O)n([C@@H]2CC[C@@H](NC(=O)OC)C2)c2cc(Nc3ccnc(-c4ccnc(OC)c4)n3)ncc21

>  <IC50>
≤ 10 nM

$$$$
>  <molecule>
COC(=O)N[C@@H]1CC[C@@H](n2c(=O)n(C)c3cnc(Nc4ccc(F)c(-c5ccc(CC#N)cc5)n4)cc32)C1

>  <IC50>
≤ 10 nM

$$$$
>  <molecule>
[2H]C([2H])([2H])c1cc(Nc2cc3c(cn2)n(C([2H])([2H])[2H])c(=O)n3[C@@H]2CC[C@@]([2H])(NC(=O)OC)C2)nc(-c2ncc(C(C)(C)O)s2)c1

>  <IC50>
≤ 10 nM

$$$$
>  <molecule>
[2H]C([2H])([2H])n1c(=O)n([C@@H]2CC[C@](C)(NC(C)=O)C2)c2cc(Nc3ccc4c(n3)c(-c3cnn(C(F)(F)F)c3)nn4CC(C)(C)O)ncc21

>  <IC50>
≤ 10 nM

$$$$
>  <molecule>
[2H]C([2H])([2H])n1c(=O)n([C@@H]2CC[C@@H](NC(=O)OC)C2)c2cc(Nc3cc(C(=O)N4CC5(CCN5C)C4)c4cccc(C(F)(F)F)c4n3)ncc21

>  <IC50>
≤ 10 nM

$$$$
>  <molecule>
[2H]C([2H])([2H])n1c(=O)n([C@@H]2CC[C@](C)(NC(C)=O)C2)c2cc(Nc3cc(C(C)(C)O)cc(-c4cnc(C(F)(F)F)s4)n3)ncc21

>  <IC50>
≤ 10 nM

$$$$
>  <molecule>
COC(=O)N[C@@H]1CC[C@@H](n2c(=O)n(C)c3cnc(Nc4cc(-c5cnn(C)c5)cc(-c5cccc(C#N)c5)n4)cc32)C1

>  <IC50>
10 to 100 nM

$$$$
>  <molecule>
[2H]C([2H])([2H])n1c(=O)n(C23CCC(C(N)=O)(CC2)C3)c2cc(Nc3cc(C(C)(C)O)cc(-c4ncc(C(F)(F)F)s4)n3)ncc21

>  <IC50>
≤ 10 nM

$$$$
>  <molecule>
COC(=O)N[C@@H]1CC[C@@H](n2c(=O)n(C)c3cnc(Nc4cc(C)cc(-c5ccnc(OC)c5)n4)cc32)C1

>  <IC50>
≤ 10 nM

$$$$
>  <molecule>
[2H]C([2H])([2H])n1c(=O)n([C@@H]2CC[C@@H](NC(=O)OC)C2)c2cc(Nc3cc(C(C)(C)O)c4nc(C)n(-c5cnn(C(F)F)c5)c4n3)ncc21

>  <IC50>
≤ 10 nM

$$$$

Measured values drawn from patent US20240317744A1 for this set.
